The reported numbers originate from PubChem BioAssay (NCI).

# Test system: SNB-19 CNS
# test details: NCI tumour cell line growth inhibition, 48 h
parameter measured: TGI

* CSc1nsc(S/C=C\C(=O)c2ccc(C)cc2)n1 | > 68.2 µM
* COC(=O)[C@H]1[C@H]2C[C@@H]3c4[nH]c5cc(OC)ccc5c4CCN3C[C@H]2C[C@@H](OC(=O)/C=C/c2cc(OC)c(OC)c(OC)c2)[C@@H]1OC | > 100 µM
* Cc1nc(Nc2nc3ccccc3[nH]2)nc(Cl)c1CCCl | > 100 µM
* CCCCN(CCCC)CCc1c(C)cc(C)c(CCN(CCCC)CCCC)c1O | > 100 µM

----------
Listed here are compounds together with their documented TGI.
# Test system: OVCAR-3 ovarian
# test details: NCI tumour cell line growth inhibition, 48 h
parameter measured: TGI (µM)

- CC12CC=CCC1CCC1C2CCC2(C)C(c3ccc(=O)oc3)CCC12O (stereo unspecified): 0.282
- O=C1/C(=C/c2ccc(O)cc2)CCC1CNc1ccccc1 (stereo unspecified): 28.4
- CCCCNC(=O)Oc1ccc(/C(=C(/CC)Cc2ccccc2)c2ccc(OCCN3CCCCCC3)cc2)cc1: 42.6

----------
# Test system: SF-268 CNS
# test details: NCI tumour cell line growth inhibition, 48 h
Measured TGI, listed per entry for reference.
parameter measured: TGI

• NNS(=O)(=O)c1cc(C(=O)O)cc(C(=O)O)c1 = > 100 µM
• CNC(=O)N(CCC#N)CCCN(C(=O)N(C)C)c1ccccc1 = > 100 µM
• COc1cc2c(c(OC)c1OC)-c1ccc(O)c(=O)cc1[C@@H](NC(C)=O)CC2 = > 100 µM
• CC1=C(/C=C/C(C)=C/C=C/C(C)=C/C=C/C=C(C)/C=C/C=C(C)/C=C/C2=C(C)C(=O)C(O)CC2(C)C)C(C)(C)CC(O)C1=O (stereo unspecified) = > 100 µM
• CC(=O)Nc1ccc(/C=C2/NC(=S)N(/C=C3\C(=O)Oc4ccccc4C3=O)C2=O)cc1 = > 100 µM
• CSc1nsc(S/C=C\C(=O)c2ccc(C)cc2)n1 = > 58.5 µM
• CCn1c(=O)c2c3ccc(OC(C)=O)cc3[nH]c2c2ccc(OC(C)=O)cc21 = > 100 µM
• Cn1c2ccc(C3=NCCN3)cc2c2cc(C3=NCCN3)ccc21 = > 100 µM
• CCN(CC)C1Oc2cc3c(cc2C(c2cc(OC)c(OC)c(OC)c2)C1C)OCO3 (stereo unspecified) = > 58.2 µM
• CC(C#N)N(CCc1ccccc1)C(=O)c1ccccc1 (stereo unspecified) = > 100 µM
• COc1cc2c(cc1OC)C(=O)/C(=C/c1ccc(O)cc1)CC2 = > 10 µM
• COc1cccc(C23CCCC(C2)N(C)CC3OC(=O)c2ccccc2)c1OC (stereo unspecified) = > 100 µM
• CCCCNC(=O)Oc1ccc(/C(=C(/CC)Cc2ccccc2)c2ccc(OCCN3CCCCCC3)cc2)cc1 = > 100 µM
• [N-]=[N+]=CC(=O)COC(=O)c1ccccc1 = > 100 µM
• C=C(CCOC)CCC1CCCCC(=C)[C@H]1O (stereo partly specified) = > 100 µM
• N#Cc1c(C[n+]2ccccc2)c2ccccc2oc1=O = > 100 µM

----------
TGI values by entry
# Test system: A498 renal
# test details: NCI tumour cell line growth inhibition, 48 h
parameter measured: TGI

• Nc1ccc2c(c1)NC(=O)[C@@H]1CCCN1C2=O = > 100 µM
• Cc1c(C(=O)CC(=O)C(=O)Nc2cc(Cl)ccc2Cl)[n+](=O)c2ccccc2n1[O-] = > 100 µM
• COC1(OC)C=CC(=O)C=C1 = > 91.2 µM
• COc1cc2c3c(c1OC)C1(C=CC(=O)C=C1)CC3NCC2 (stereo unspecified) = > 100 µM
• CC(=Nc1cc(Cl)cc(Cl)c1)c1ccncc1 = > 100 µM
• O=c1c(O)cccn1C1OC(CO)C(O)C1O (stereo unspecified) = > 100 µM
